Value source: patent US20260256925A1

- ASSAYED_TARGET: ER (Homo sapiens, UniProt P03372)
- Construct: endogenous in cells; probably T47D or MCF-7
- EXPERIMENT_NOTES: In-cell western blot analysis, relative ER percentage (compounds B1-B126)
- Assay type: cell-based
- PARTICULARS: ER degradation, 16 hours, read-out: ICW DC50
EXPERIMENTAL_ENDPOINT: DC50

Quick check: DC50 on ER (Homo sapiens, UniProt P03372), item COc1cc(N2CCC(N3CC(N4CCN5c6cc7c(cc6OC[C@@H]5C4)C(=O)N(C4CCC(=O)NC4=O)C7)C3)CC2)ccc1[C@@H]1c2ccc3[nH]ncc3c2C[C@@H](C)N1CC(F)F (some centres unmarked) ? 10 to 100 nM

For ER (Homo sapiens, UniProt P03372), provide DC50 of C[C@@H]1Cc2c(ccc3[nH]ncc23)[C@@H](c2ccc(N3CC4(CCC(CN5CCN6c7ccc8c(c7OC[C@@H]6C5)CN(C5CCC(=O)NC5=O)C8=O)CC4)C3)cn2)N1CC(F)F (some centres unmarked) please. < 10 nM

Checklist item: DC50 tested on ER (Homo sapiens, UniProt P03372), entry COc1cc(N2CCC3(CCN(C(=O)CN4Cc5cc6c(cc5C4)C(=O)N(C4CCC(=O)NC4=O)C6)CC3)CC2)ccc1[C@@H]1c2ccc3[nH]ncc3c2C[C@@H](C)N1CC(F)F (some centres unmarked) , value? < 10 nM

Return DC50 measured with ER (Homo sapiens, UniProt P03372) given this compound: C[C@@H]1Cc2c(ccc3[nH]ncc23)[C@@H](c2c(F)cc(N3CC4(CCN(C(=O)CN5CCN6c7cc8c(cc7OC[C@@H]6C5)C(=O)N(C5CCC(=O)NC5=O)C8)CC4)C3)cc2F)N1CC(F)F (some centres unmarked) < 10 nM

Field: DC50 (ER (Homo sapiens, UniProt P03372)). Entry: COc1cc(N2CCC3(CC2)OCC(CN2CCN4c5cc6c(cc5OC[C@H]4C2)C(=O)N(C2CCC(=O)NC2=O)C6)CO3)ccc1[C@@H]1c2ccc3[nH]ncc3c2C[C@@H](C)N1CC(F)F (some centres unmarked) < 10 nM

Request body: readout DC50, system ER (Homo sapiens, UniProt P03372), query C[C@@H]1Cc2c(ccc3[nH]ncc23)[C@@H](c2c(F)cc(NC3CC4(C3)CN(C(=O)CN3Cc5cc6c(cc5C3)C(=O)N(C3CCC(=O)NC3=O)C6=O)C4)cc2F)N1CC(F)F (some centres unmarked) . Return the value. < 10 nM

Form field - read-out: DC50; system: ER (Homo sapiens, UniProt P03372); submitted item: C[C@@H]1Cc2c(ccc3[nH]ncc23)[C@@H](c2ccc(N3CCC4(CC3)CC(CN3CCC5(CC3)COc3c5ccc5c3CN(C3CCC(=O)NC3=O)C5=O)C4)cn2)N1CC(F)(F)F (some centres unmarked) < 10 nM

// map COc1cc(N2CCC3(CC2)CC(CN2CCN4c5cc6c(cc5OC[C@@H]4C2)C(=O)N(C2CCC(=O)NC2=O)C6)CO3)ccc1[C@@H]1c2ccc3[nH]ncc3c2C[C@@H](C)N1CC(F)F (some centres unmarked) to recorded DC50 (system: ER (Homo sapiens, UniProt P03372)) < 10 nM

Enter reported DC50 observed with ER (Homo sapiens, UniProt P03372) for C[C@@H]1Cc2c(ccc3[nH]ncc23)[C@@H](c2cnc(N3CCC4(CC3)CC(CN3CCN5c6ccc7c(c6OC[C@H]5C3)CN(C3CCC(=O)NC3=O)C7=O)C4)nc2)N1CC(F)(F)F (some centres unmarked) < 10 nM

Form: Entry = C[C@@H]1Cc2c(ccc3[nH]ncc23)[C@@H](c2c(F)cc(N3CCC(CN4CCC5(CC4)COc4c5ccc5c4CN(C4CCC(=O)NC4=O)C5=O)CC3)cc2F)N1CC(F)F (some centres unmarked) | System = ER (Homo sapiens, UniProt P03372) | DC50 = ____ > 100 nM

Lab note: need DC50 for C[C@@H]1Cc2c(ccc3[nH]ncc23)[C@@H](c2c(F)cc(N3CCN(C(=O)CN4CCN5c6cc7c(cc6OC[C@@H]5C4)C(=O)N(C4CCC(=O)NC4=O)C7)CC3)cc2F)N1CC(F)F (some centres unmarked) on ER (Homo sapiens, UniProt P03372), anyone have it? 10 to 100 nM
